measurement_notes: Solubility experiments in different media (thermodynamic solubility)
Assay type: physicochemical
reported_conditions: FeSSCoF, 37 °C, fassgf or other biorelevant, thermodynamic from solid, FeSSCoF, read-out: Solubility of free base crystal form II
measure_name: solubility at 2 h (µg/mL)
One number for each entry, in µg/mL.

solubility at 2 h for CC(C)(O)c1nc(N2C[C@H]3CN(C(=O)c4c(F)cccc4-c4ncccn4)C[C@H]3C2)ncc1F [free base crystal form II] is 63

###

measurement_notes: Solubility experiments in different media (thermodynamic solubility)
Format: physicochemical
reported_conditions: water, 37 °C, water, thermodynamic from solid, H2O, read-out: Solubility of free base crystal form II
measure_name: solubility at 2 h (µg/mL)
Numbers only, in µg/mL.

solubility at 2 h for CC(C)(O)c1nc(N2C[C@H]3CN(C(=O)c4c(F)cccc4-c4ncccn4)C[C@H]3C2)ncc1F [free base crystal form II] is 55
